The measurements presented in this section are drawn from paper PMC11571108.

# assay text: Microsomal stability
# Type: in vitro ADME
# condition parameters: human, liver microsomes, 0.5 mg/mL microsomes, 37 °C, read-out: HLM CLint (intrinsic clearance)
property: microsomal CLint at 1 μM

response.value for CCN(CC)Cc1ccc(OC)c(-c2cc3c(-c4ccc(C(=O)O)c(C(C)C)c4)ccnc3[nH]2)c1 (field: microsomal CLint at 1 μM) = < 7.5 µL/min/mg

* * *

# assay text: physchem
# condition parameters: pH 7.5, GSH t1/2, 37 °C, 10:1 ratio GSH:compound
property: half-life at 1 mM

The compound listed as CCN(CC)Cc1ccc(OC)c(-c2cc3c(-c4ccc(C(=O)O)c(C(C)C)c4)ccnc3[nH]2)c1 has a reported half-life at 1 mM of > 72 h
